- Target Desc: TRPV3 I637 alanine mutation (Homo sapiens, UniProt Q8NET8, I637A)
- Construct: YFP or GFP
- Test Protocol: Whole-cell recording of TRPV3 I637 alanine mutant
- Condition Label: 1 mM 2-APB, ± 80 mV
Readout Name: IC50 (µM)
The response must be a number in µM with no trailing unit.

Value lookup for IC50; key = CCN(CCO)CCCC(C)Nc1ccnc2cc(Cl)ccc12 (stereo not shown) [HCQ, hydroxychloroquine]
0.14

* * *

- Target Desc: TRPV3 Y594 alanine mutation (Homo sapiens, UniProt Q8NET8, Y594A)
- Construct: YFP or GFP
- Sequence (Q8NET8 1-790 Y594A): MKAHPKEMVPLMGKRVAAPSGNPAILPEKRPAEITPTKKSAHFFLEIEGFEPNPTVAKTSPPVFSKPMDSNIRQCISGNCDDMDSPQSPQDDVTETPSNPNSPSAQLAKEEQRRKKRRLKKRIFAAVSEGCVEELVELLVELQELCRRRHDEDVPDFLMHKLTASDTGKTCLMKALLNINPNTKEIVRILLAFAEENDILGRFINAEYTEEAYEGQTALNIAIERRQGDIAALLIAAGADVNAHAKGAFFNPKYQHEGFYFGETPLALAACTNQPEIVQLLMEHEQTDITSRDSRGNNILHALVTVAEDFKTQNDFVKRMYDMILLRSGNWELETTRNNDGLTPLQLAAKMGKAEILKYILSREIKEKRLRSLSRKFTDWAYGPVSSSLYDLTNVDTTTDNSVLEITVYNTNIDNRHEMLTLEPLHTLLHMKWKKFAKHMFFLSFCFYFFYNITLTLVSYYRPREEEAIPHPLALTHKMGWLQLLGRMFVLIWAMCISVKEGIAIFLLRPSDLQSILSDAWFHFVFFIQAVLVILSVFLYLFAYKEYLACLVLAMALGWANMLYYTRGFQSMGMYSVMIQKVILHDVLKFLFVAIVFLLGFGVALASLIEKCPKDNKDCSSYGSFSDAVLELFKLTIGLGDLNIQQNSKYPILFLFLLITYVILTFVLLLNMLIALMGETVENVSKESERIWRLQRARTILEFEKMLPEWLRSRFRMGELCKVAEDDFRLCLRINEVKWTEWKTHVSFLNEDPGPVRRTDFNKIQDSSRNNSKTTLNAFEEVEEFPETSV
- Test Protocol: Whole-cell recording of TRPV3 Y594 alanine mutant
- Condition Label: 1 mM 2-APB, ± 80 mV
Readout Name: pIC50
Note on units: pIC50 is unitless, being -log10 of a concentration expressed in mol/L.

Hello, I am looking for reported pIC50 with TRPV3 Y594 alanine mutation (Homo sapiens, UniProt Q8NET8, Y594A) for CCN(CCO)CCCC(C)Nc1ccnc2cc(Cl)ccc12 (stereo not shown) [HCQ, hydroxychloroquine] . Could you help?
5.80
